The measured values listed here are drawn from the RNAGym collection of RNA variant scans (doi:10.7554/elife.80360).

B1: HDV Ribozyme (parent)
chain: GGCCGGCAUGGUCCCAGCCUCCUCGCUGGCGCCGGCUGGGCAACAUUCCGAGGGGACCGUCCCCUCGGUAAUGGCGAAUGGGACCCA

variants of: B1; assay: self-cleavage, relative activity (ratio to wild type); higher = more cleavage; co-transcriptional
// map self-cleavage to label using c1 (below 0.1), c2 (0.1 to below 0.2), c3 (0.2 or more)

> print(dat)
   mutant.code  assigned.label
1    G35U C58U              c3

Now take the following variant into account.
q: Please let me know in which category the item C49A U60A belongs.
a: c3
